Value source: the supplement of paper PMC12667976

B1: library; numbered along this chain (parent)
chain: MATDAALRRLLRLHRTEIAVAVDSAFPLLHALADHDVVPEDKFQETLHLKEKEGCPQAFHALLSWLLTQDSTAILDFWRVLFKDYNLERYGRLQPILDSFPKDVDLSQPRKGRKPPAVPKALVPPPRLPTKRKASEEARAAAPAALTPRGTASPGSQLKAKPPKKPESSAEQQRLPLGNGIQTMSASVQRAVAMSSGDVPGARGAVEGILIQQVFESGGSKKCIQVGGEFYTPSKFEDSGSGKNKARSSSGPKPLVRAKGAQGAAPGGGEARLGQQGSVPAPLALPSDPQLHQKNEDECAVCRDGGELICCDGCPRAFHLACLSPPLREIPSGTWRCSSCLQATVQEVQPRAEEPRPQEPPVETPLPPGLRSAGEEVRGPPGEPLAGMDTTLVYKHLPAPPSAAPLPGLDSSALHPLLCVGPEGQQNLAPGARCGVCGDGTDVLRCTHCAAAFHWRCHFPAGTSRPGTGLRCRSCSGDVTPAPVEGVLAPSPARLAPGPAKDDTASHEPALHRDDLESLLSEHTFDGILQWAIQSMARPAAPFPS

Variants of: B1
method summary: AIRE transcriptional activation functional score (insulin promoter-GFP; nonsense median 0, synonymous median 1) (normalised score); higher = higher AIRE activity (more reporter activation)
run conditions: with insulin promoter-GFP reporter in HEK293
Outcome: met for AIRE transcriptional activation functional score of at least 0.9; not met for anything lower.

A261Y	met
E270S	not met
I74C	not met
V436Y	met
G387L	met
C337H	met
T441I	met
T3A	met
R303D	not met
L10K	not met
A265T	met
W78Y	not met
D103Y	not met
E329I	met
S476W	met
P101H	met
C55V	not met
T3S	met
R9W	not met
H448V	not met
S217Q	not met
L146A	not met
P176H	met
R149W	met
L146G	not met
A496K	not met
S518Y	met
T232C	not met
T147Q	not met
K501W	not met
A191R	met
Q349I	met
F100I	not met
P422G	met
Y231F	met
E508G	not met
A281P	not met
E137T	not met
H448D	not met
R445A	not met
S506M	not met
W335G	met
E171N	met
S474E	met
L428G	met
G112M	not met
P509R	not met
I528Y	not met
N179V	met
S187N	not met
P166R	met
C223H	not met
L392K	met
G431Y	not met
R203T	not met
P400D	not met
C472T	not met
P490M	not met
E296P	not met
A461L	met
P27T	not met
S338D	met
A343H	met
D98G	not met
Q44L	not met
R316L	not met
N86F	not met
G260E	met
G242D	met
Q189I	not met
K222H	not met
A5C	met
Y90R	not met
A281Q	met
L370H	met
A343C	met
L516W	not met
D41Y	met
Y90L	not met
K259M	met
L418G	met
G431P	met
D514G	not met
S287V	met
L414H	not met
P367W	met
G306H	met
